- assay: physchem
- measurement.conditions: octanol/water, pH 7.4
- Description: 1-octanol/aqueous buffer solution partition coefficient, log D of the compound at pH 7.4 by UV-HPLC method
property.name: logD

{"molecule": "CCC(NC(=O)N1CC(=O)Nc2cccnc21)c1ccc(N2CCC2)cc1 (configuration not stated)", "logD": 3.13}

[in] Any idea what logD was measured for COCC(NC(=O)N1CC(=O)Nc2cc(OC)cnc21)c1ccc(C(F)(F)F)cc1 (stereo in doubt; 34) ?
[out] 3.03
